# System: YT (Other Blood Carcinomas)
# assay-remarks: Bliss excess, mean over the matrix (fraction); higher = more synergy
parameter: Bliss excess
# answer = number (no unit)

compound	reported-value
Cc1c2c(nn1C)CSCc1cc(n(C)n1)CSc1cc(c3ccccc3c1)OCCCc1c(C(=O)O)n(C)c3c-2c(Cl)ccc13 [AZD5991] + C1CN(CCC1(C(=O)N[C@@H](CCO)C2=CC=C(C=C2)Cl)N)C3=NC=NC4=C3C=CN4 [Capivasertib] (first compound max 1 µM, 7x7, partner max 3 µM)	-0.0466

Query compound follows.
Q) # get_value(readout='Bliss excess', item= CCc1c2c(nc3ccc(O)cc13)-c1cc3c(c(=O)n1C2)COC(=O)[C@]3(O)CC [SN-38] + O=C(c1cc(Cc2n[nH]c(=O)c3ccccc23)ccc1F)N1CCN(C(=O)C2CC2)CC1 [Olaparib] (first compound max 0.3 µM, 7x7, partner max 10 µM) )
A) -0.0409

---

# Tested on: TYK-nu (Ovarian Carcinoma)
# assay-remarks: combination Emax (second highest fraction inhibited in the dose matrix, 72 h); higher = more inhibition; extreme values may be limits of the assay
parameter: combination Emax
Enter a number only.

These solved cases illustrate the format of a correct answer.
compound	combination Emax
C[C@@H](c1ccc2nccn2c1)n1nnc2ncc(-c3cnn(C)c3)nc21 [Savolitinib] + Cc1c2c(nn1C)CSCc1cc(n(C)n1)CSc1cc(c3ccccc3c1)OCCCc1c(C(=O)O)n(C)c3c-2c(Cl)ccc13 [AZD5991] (first compound max 1 µM, 7x7, partner max 1 µM)	0.295
CS(=O)(=O)CCNCc1ccc(-c2ccc3ncnc(Nc4ccc(OCc5cccc(F)c5)c(Cl)c4)c3c2)o1 [Lapatinib] + C[C@@H](Oc1cc(-c2cnn(C3CCNCC3)c2)cnc1N)c1c(Cl)ccc(F)c1Cl [Crizotinib] (first compound max 10 µM, 7x7, partner max 10 µM)	0.719
C=CCn1c(=O)c2cnc(Nc3ccc(N4CCN(C)CC4)cc3)nc2n1-c1cccc(C(C)(C)O)n1 [AZD1775] + C1CN(CCC1(C(=O)N[C@@H](CCO)C2=CC=C(C=C2)Cl)N)C3=NC=NC4=C3C=CN4 [Capivasertib] (first compound max 3 µM, partner max 3 µM)	0.695

Q) Which combination Emax is reported for this compound? CN(C)CCCOc1ccc(-c2ccc3ncc4c(c3c2)n(C2CCOCC2)c(=O)n4C)cn1 [AZD0156] + O=C(c1cc(Cc2n[nH]c(=O)c3ccccc23)ccc1F)N1CCN(C(=O)C2CC2)CC1 [Olaparib] (first compound max 3 µM, partner max 3 µM)
A) 0.354

---

Listed below: Bliss excess values for each entry.
# Tested on: SW948 (Colorectal Carcinoma)
# assay-remarks: Bliss excess, mean over the matrix (fraction); higher = more synergy
The answer should be a number; do not append a unit.

compound	parameter	reported-value
Cc1c2c(nn1C)CSCc1cc(n(C)n1)CSc1cc(c3ccccc3c1)OCCCc1c(C(=O)O)n(C)c3c-2c(Cl)ccc13 [AZD5991] + CC(=O)O[C@H]1C(=O)[C@@]2(C)[C@H]([C@H](OC(=O)c3ccccc3)[C@]3(O)C[C@H](OC(=O)[C@H](O)[C@@H](NC(=O)c4ccccc4)c4ccccc4)C(C)=C1C3(C)C)[C@]1(OC(C)=O)CO[C@@H]1C[C@@H]2O [Paclitaxel] (first compound max 1 µM, 7x7, partner max 3 µM)	Bliss excess	-0.0421
Cn1cnc2c(F)c(Nc3ccc(Br)cc3Cl)c(C(=O)NOCCO)cc21 [Selumetinib] + CCN(CCO)CCCOc1ccc2c(Nc3cc(CC(=O)Nc4cccc(F)c4)[nH]n3)ncnc2c1 [AZD2811] (first compound max 10 µM, 7x7, partner max 1 µM)	Bliss excess	0.0022
CCc1c2c(nc3ccc(O)cc13)-c1cc3c(c(=O)n1C2)COC(=O)[C@]3(O)CC [SN-38] + CN(C)CCCOc1ccc(-c2ccc3ncc4c(c3c2)n(C2CCOCC2)c(=O)n4C)cn1 [AZD0156] (first compound max 0.3 µM, 7x7, partner max 1 µM)	Bliss excess	0.237
COc1cccc(OCCCN)c1-c1cc(Nc2cnc(C#N)cn2)n[nH]1 [Prexasertib] + O=C(c1cc(Cc2n[nH]c(=O)c3ccccc23)ccc1F)N1CCN(C(=O)C2CC2)CC1 [Olaparib] (first compound max 1 µM, 7x7, partner max 10 µM)	Bliss excess	-0.0118
Cc1nc(Nc2ncc(C(=O)Nc3c(C)cccc3Cl)s2)cc(N2CCN(CCO)CC2)n1 [Dasatinib] + CC(=O)Nc1cccc(-n2c(=O)n(C3CC3)c(=O)c3c(Nc4ccc(I)cc4F)n(C)c(=O)c(C)c32)c1 [Trametinib] (first compound max 2 µM, 7x7, partner max 1 µM)	Bliss excess	-0.008

Q) Fill in the blank: the reported Bliss excess of COc1cccc(OCCCN)c1-c1cc(Nc2cnc(C#N)cn2)n[nH]1 [Prexasertib] + CCc1c2c(nc3ccc(O)cc13)-c1cc3c(c(=O)n1C2)COC(=O)[C@]3(O)CC [SN-38] (first compound max 1 µM, 7x7, partner max 0.3 µM) is ____.
A) 0.151

Q) Suppose we examine the compound CN(CCO)CC[C@H](CSc1ccccc1)Nc1ccc(S(=O)(=O)NC(=O)c2ccc(N3CCC([C@@H](O)c4ccccc4-c4ccc(Cl)cc4)CC3)cc2)cc1S(=O)(=O)C(F)(F)F [AZD4320] + C=CCn1c(=O)c2cnc(Nc3ccc(N4CCN(C)CC4)cc3)nc2n1-c1cccc(C(C)(C)O)n1 [AZD1775] (first compound max 1 µM, partner max 1 µM) ; what Bliss excess value has been reported?
A) 0.0744
